Hello, the source for this data is patent US8877769B2, in case you need it.

Target: Rat FAAH (Rattus norvegicus, UniProt P97612)
Construct: expressed in transfected cells
Sequence (P97612 whole entry): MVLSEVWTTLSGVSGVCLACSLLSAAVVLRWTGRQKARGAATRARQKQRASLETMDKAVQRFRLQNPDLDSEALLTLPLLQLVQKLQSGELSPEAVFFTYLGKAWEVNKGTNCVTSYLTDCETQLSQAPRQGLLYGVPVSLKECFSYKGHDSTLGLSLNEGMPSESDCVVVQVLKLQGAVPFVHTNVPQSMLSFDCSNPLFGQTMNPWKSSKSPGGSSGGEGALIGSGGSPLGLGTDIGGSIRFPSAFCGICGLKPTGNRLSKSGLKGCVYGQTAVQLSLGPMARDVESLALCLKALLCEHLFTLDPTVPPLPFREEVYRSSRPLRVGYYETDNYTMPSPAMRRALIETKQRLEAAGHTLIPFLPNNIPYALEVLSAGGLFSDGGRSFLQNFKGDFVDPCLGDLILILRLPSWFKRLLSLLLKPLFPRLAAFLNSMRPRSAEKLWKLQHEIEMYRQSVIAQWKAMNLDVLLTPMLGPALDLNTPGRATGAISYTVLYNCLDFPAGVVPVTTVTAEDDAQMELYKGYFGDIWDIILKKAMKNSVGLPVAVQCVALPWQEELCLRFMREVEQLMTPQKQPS
Experiment: Assay Method 2: FAAH assay, 3H-anandamide hydrolysis in cell homogenate
Assay type: biochemical
Conditions: average of results obtained, > value = solubility limit or highest concentration tested
pIC50: −log10 of the molar value.
The entries below are paired with their reported pIC50.

| Smiles Repr | Value Reported |
| --- | --- |
| O=C(Nc1noc2ncccc12)N1CCN(Cc2cccc(Oc3ccc4ncccc4c3)c2)CC1 | < 5.00 |
| O=C(Nc1cn2ccccc2n1)N1CCN(Cc2ccc(OC(F)(F)F)c(Cl)c2)CC1 | < 5.00 |
| O=C(Nc1noc2ncccc12)N1CCN(Cc2cccc(Oc3ccc(S(=O)(=O)C(F)(F)F)cc3)c2)CC1 | < 5.00 |

Can you share its pIC50? I mean this molecule: `O=C(Nc1noc2ncccc12)N1CCN(Cc2cccc(Oc3ccc4c(c3)OC(F)(F)O4)c2)CC1`
< 6.40
